experiment: Volume of distribution at steady state in rat at 3.9 mg/kg, iv; assay type: ADME, organism-based; settings: in vivo, read-out: Vdss
quantityMeasured: Vd
Units required after the number.

Record request: Vd value, item Cc1nc(NNC(=O)[C@H](CC2CCCC2)CN(O)C=O)c(F)c(N2CCN3CCOC[C@@H]3C2)n1 [LANOPEPDEN]
2.5 L/kg

* * *

assay: Cmax in rat at 8.5 mg/kg, po; assay type: ADME, organism-based; set-up: dose 8.5 mg/kg, route oral; conditions: in vivo
quantityMeasured: Cmax (ng/mL)
Write it as a number; the unit ng/mL goes unstated.

Record request: Cmax value, item Cc1nc(NNC(=O)[C@H](CC2CCCC2)CN(O)C=O)c(F)c(N2CCN3CCOC[C@@H]3C2)n1 [LANOPEPDEN]
902
